Test system: 786-0
test_protocol: NCI single dose screen, 786-0
Format: cell-based
experimental_parameters: Homo sapiens; 786-0, renal cancer; single dose 10^−5 M; read-out: growth inhibition percentage
Experimental: Screening of the anticancer activity of the newly synthesised compounds (6a, 6c, 6d, 6e, 6j, 6l, 6m, 6n, 6o, and 6p) was performed by the US National Cancer Institute (NCI) using 60 different human tumour cell lines in accordance with standard procedures formerly reported. […]
Reported inhibition at 10 µM by item:
observable: inhibition at 10 µM (%)

# compound, observable, result_operator, experimental_value
rows = [
    ("CC1N(NC(=O)Nc2ccc(F)cc2)C(=O)c2ccccc2N1C (stereo not shown) [Compound 6l]", "inhibition at 10 µM", "<", 10),
    ("CN1c2ccccc2C(=O)N(NC(=O)Nc2ccc(F)cc2)C1c1ccccc1 (stereo not shown) [Compound 6m]", "inhibition at 10 µM", "=", 12.9),
    ("CN1c2ccccc2C(=O)N(NC(=O)Nc2ccccc2)C1c1ccc(F)cc1 (stereo not shown) [Compound 6d]", "inhibition at 10 µM", "=", 11.9),
    ("COc1ccc(NC(=O)NN2C(=O)c3ccccc3N(C)C2c2ccc(OC)cc2)cc1 (stereo not shown) [Compound 6j]", "inhibition at 10 µM", "=", 34.2),
    ("CN1c2ccccc2C(=O)N(NC(=O)Nc2ccc(F)cc2)C1c1ccc(F)cc1 (stereo not shown) [Compound 6n]", "inhibition at 10 µM", "<", 10),
    ("CN1c2ccccc2C(=O)N(NC(=O)Nc2ccccc2)C1c1ccc([N+](=O)[O-])cc1 (stereo not shown) [Compound 6e]", "inhibition at 10 µM", "=", 39.9),
    ("CN1c2ccccc2C(=O)N(NC(=O)Nc2ccccc2)C1c1ccccc1 (stereo not shown) [Compound 6c]", "inhibition at 10 µM", "=", 35.3),
    ("COc1ccc(C2N(NC(=O)Nc3ccc(F)cc3)C(=O)c3ccccc3N2C)cc1 (stereo not shown) [Compound 6p]", "inhibition at 10 µM", "<", 10),
    ("CN1CN(NC(=O)Nc2ccccc2)C(=O)c2ccccc21 [Compound 6a]", "inhibition at 10 µM", "<", 10),
    ("CN1c2ccccc2C(=O)N(NC(=O)Nc2ccc(F)cc2)C1c1ccc([N+](=O)[O-])cc1 (stereo not shown) [Compound 6o]", "inhibition at 10 µM", "<", 10),
]
